- SUBJECT OF TEST: L858R/T790M/C797S EGFR (Homo sapiens, UniProt P00533, C797S/L858R/T790M)
- Construct: expressed in transfected cells; host or cells: H1975 clone #25 (lentiviral over-expression, endogenous EGFR knocked out by sgRNA)
- Sequence (P00533 25-1210 T790M/C797S/L858R): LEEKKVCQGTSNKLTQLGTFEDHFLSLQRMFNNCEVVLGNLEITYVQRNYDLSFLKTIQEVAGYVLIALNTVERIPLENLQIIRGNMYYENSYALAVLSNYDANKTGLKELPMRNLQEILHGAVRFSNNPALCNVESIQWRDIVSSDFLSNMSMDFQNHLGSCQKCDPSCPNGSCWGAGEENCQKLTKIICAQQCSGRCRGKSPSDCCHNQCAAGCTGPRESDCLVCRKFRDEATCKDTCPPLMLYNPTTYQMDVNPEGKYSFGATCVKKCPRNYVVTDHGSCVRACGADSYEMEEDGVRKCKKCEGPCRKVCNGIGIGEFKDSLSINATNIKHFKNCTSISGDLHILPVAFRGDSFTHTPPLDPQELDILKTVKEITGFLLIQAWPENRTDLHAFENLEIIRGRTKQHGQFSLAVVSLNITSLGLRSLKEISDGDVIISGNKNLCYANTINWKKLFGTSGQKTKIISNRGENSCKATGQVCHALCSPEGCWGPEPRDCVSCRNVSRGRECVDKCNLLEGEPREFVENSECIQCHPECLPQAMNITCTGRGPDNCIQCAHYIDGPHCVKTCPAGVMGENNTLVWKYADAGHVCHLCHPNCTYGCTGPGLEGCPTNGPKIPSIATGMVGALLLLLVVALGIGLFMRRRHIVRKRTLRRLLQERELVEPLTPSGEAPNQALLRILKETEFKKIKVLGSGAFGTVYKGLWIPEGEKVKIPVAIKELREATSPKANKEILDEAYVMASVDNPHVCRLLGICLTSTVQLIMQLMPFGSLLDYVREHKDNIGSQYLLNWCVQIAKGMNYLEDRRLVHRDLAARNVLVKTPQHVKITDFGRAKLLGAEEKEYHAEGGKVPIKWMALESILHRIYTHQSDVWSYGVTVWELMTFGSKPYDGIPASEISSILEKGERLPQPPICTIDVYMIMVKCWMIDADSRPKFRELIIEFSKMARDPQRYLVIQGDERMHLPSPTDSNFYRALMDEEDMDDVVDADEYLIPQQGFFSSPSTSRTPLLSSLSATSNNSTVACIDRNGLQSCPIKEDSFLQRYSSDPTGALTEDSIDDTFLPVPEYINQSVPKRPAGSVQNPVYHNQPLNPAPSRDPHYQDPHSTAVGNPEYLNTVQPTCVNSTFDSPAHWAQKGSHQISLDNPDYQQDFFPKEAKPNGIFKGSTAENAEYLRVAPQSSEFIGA
- PROTOCOL: EGFR degradation HTRF assay in H1975-clone #25 (LTC) cells
- Assay type: cell-based
- PROTOCOL CONDITIONS: NCI-H1975, H1975 # 25-LTC (L858R/T790M/C797S), 16h treatment, maximum percentage of degradation
ENDPOINT LABEL: Dmax (%)
Write the value in % as a bare number.

>>> recorded_measurement("COC[C@@H]1CN(c2cc(F)c([C@H]3CCC(=O)NC3=O)c(F)c2)CCN1C(=O)C1CCN(c2ccc3c(c2)N2C[C@H](C)CCCOc4c(cnn4C)-c4cc(cc(C)n4)C(=O)/N=C/2N3)CC1 [Example 357]")
87.6
>>> recorded_measurement("Cc1cc2cc(n1)-c1cnn(C)c1OCCC[C@@H](C)CN1/C(=N/C2=O)Nc2ccc(C(=O)N[C@@H]3C[C@H]4CC[C@@H](C3)N4CCc3cc(F)c([C@H]4CCC(=O)NC4=O)c(F)c3)cc21 [Example 264]")
89.8

Moving on to the next molecule.
Ask: May I ask what Dmax has been recorded for COCc1cc2c(cc1N1CCN(C3CCN(c4cc(F)c([C@H]5CCC(=O)NC5=O)c(F)c4)CC3)CC1)N1C[C@H](C)CCCOc3c(cnn3C)-c3cc(cc(C)n3)C(=O)/N=C/1N2 [Example 390] ?
Reply: 87.7
